# EC50 annotations
target: T1, cTSLPR-Ig (cynomolgus monkey); assay: ELISA, plate coated with TSLPR 50 ng/well, HRP goat anti-mouse detection
T1 construct: also called cyTSLP R-hIg P749; Mam-Trans[FlagPreProTrypsin]DELTA2_NHP[Ig]
Output spec: scalar in µg/mL, unitless text.

The cases that follow already have their EC50 on record.
- binder: "mouse antibody 54C11 (antibody, mouse IgG2a, V domains shown, Mouse IgG2a/kappa from hybridoma; also called m54C11; LB55.54C11.3G11) VH: QVQLQQSGPEVVRPGVSVKISCKGSGFTFTDYAIHWVRQSHAKSLEWIGIIRPSNGNTNCDQKFKDKATMTVDKSSSTAYLDLARLTSEDSAIYYCSRSRVWGGSLAYWGQGTLVTVSA VL: DIVMTQSQKFMSTSVGDRVSVTCKASQNVGTNIAWYQQKPGQSPEALIYSASYRYSGVPDRFTGSGSGTDFTLTITNVQSEDLAEYFCQQYKSYPWTFGGGTKLEIKR"
  reported.value: 0.153
- binder: "mouse antibody 61C11 (antibody, mouse IgG2a, V domains shown, Mouse IgG2a/kappa from hybridoma; also called m61C11; LB55.61C11.2B1) VH: QAYLQQSGAELVRSGASVKMSCKASGYTFTSYNLHWIKLTPGQGLEWIGYIYPGLNGTLYNQKFRGKATLTADTSSSTAYMQISSLTSEDSAVYFCARSDYGKAWFAYWGRGTLVTVSA VL: DILLTQSPAILSVSPGERVSFSCRASQSIATKIHWYQQRTDHSPRLLIQLGSESISGIPSRFSGSGSGTDFTFTINSVESEDIAVYYCQQSNRYPYTFGGGTKLEVKR"
  reported.value: 0.26

Ask | Specify EC50 for mouse antibody 4G8 (antibody, mouse IgG1, V domains shown, Mouse IgG1/kappa from hybridoma; also called m4G8; LB55.4G8.2A6) VH: QVQLKQSGPGLVQPSQSLSITCTVSGFSLTIYGLHWVRQSPGKGLEWLGVIWRGGSTDYNAAFMSRLRITKDNSKSQVFFKMDSLQADDTAIYYCAKPYYDYDGNWYFDVWGAGTTVTVSS VL: DIVMTQSQKFMSTSVGDRVSVTCKASQNVGTNVAWYQKKSGQSPKPLIYSASSHCSEVPDRFTGSGSGTDFTLTINNVQSEDLAEYFCQQYNRYPLTFGTGTKLEVRR and stop.
Reply | 0.081
